Tested on: ZEAMX (Corn, Field)
assay: Preemergence herbicidal evaluation
Format: in vivo, Zea mays, L.
cond: Rate 0.0620 kg/ha; rated 4-5 weeks after treatment
reported_endpoint: Preemergence herbicidal rating ZEAMX
Numbers only.

Known Preemergence herbicidal rating ZEAMX results, listed for orientation:
Cn1c(C(F)(F)F)cc(=O)n(-c2ccc3snc(-c4sccc4CBr)c3c2)c1=O = 0.5
Cc1cccnc1-c1nsc2cc(F)c(N3C(=O)C4=C(CCCC4)C3=O)cc12 = 0.0
C[C@@H]1OC(c2nsc3cc(F)c(-n4c(=O)cc(C(F)(F)F)n(C)c4=O)cc23)O[C@@H]1C (some centres unmarked) = 8.0
Cn1c(C(F)(F)F)cc(=O)n(-c2cc3c(C4OCCCO4)nsc3cc2F)c1=O = 9.0
Cc1cccnc1-c1nsc2cc(F)c(-n3c(=O)cc(C(F)(F)F)n(C)c3=O)cc12 = 7.5
C=CC1COC(c2nsc3ccc(-n4c(=O)cc(C(F)(F)F)n(C)c4=O)cc23)O1 (centres unmarked) = 8.5
C#CCOC(=O)COc1ccsc1-c1nsc2ccc(-n3c(=O)cc(C(F)(F)F)n(C)c3=O)cc12 = 0.0
Cn1c(C(F)(F)F)cc(=O)n(-c2ccc3snc(C4OC(=O)C(C)(C)O4)c3c2)c1=O (centres unmarked) = 5.5
Cn1c(C(F)(F)F)cc(=O)n(-c2ccc3snc(C4OCC5(CO4)CO5)c3c2)c1=O (centres unmarked) = 2.0
C[C@@H]1C[C@H](C)OC(c2nsc3cc(F)c(-n4c(=O)cc(C(F)(F)F)n(C)c4=O)cc23)O1 (some centres unmarked) = 9.0

Please look at the following molecule next.
Preemergence herbicidal rating ZEAMX for C[C@@H]1C[C@H](C)OC(c2nsc3ccc(-n4c(=O)cc(C(F)(F)F)n(C)c4=O)cc23)O1 (some centres unmarked) [Compound 50] is 9.0

----------
System: AMBEL (Ambrosia artemisifolia)
assay: Preemergence herbicidal evaluation
Assay type: in vivo, L.
cond: Rate 0.0620 kg/ha; rated 4-5 weeks after treatment
Would you kindly list Preemergence herbicidal rating AMBEL for each of these compounds?

Known Preemergence herbicidal rating AMBEL results, listed for orientation:
Cc1ccc(-c2nsc3ccc(-n4c(=O)cc(C(F)(F)F)n(C)c4=O)cc23)nc1 = 1.0
CC1=CC(C)(C)OC(c2nsc3ccc(-n4c(=O)cc(C(F)(F)F)n(C)c4=O)cc23)C1 (stereo not drawn) = 8.0

Value sought for every listed compound: Preemergence herbicidal rating AMBEL.
1. Cn1c(C(F)(F)F)cc(=O)n(-c2ccc3snc(C4=NCCO4)c3c2)c1=O
2. Cn1c(C(F)(F)F)cc(=O)n(-c2ccc3snc(C4OCCCS4)c3c2)c1=O (stereo not drawn)
3. CCOc1cc(OCC)nc(-c2nsc3ccc(-n4c(=O)cc(C(F)(F)F)n(C)c4=O)cc23)n1
4. C[C@@H]1OC(c2nsc3cc(F)c(-n4c(=O)cc(C(F)(F)F)n(C)c4=O)cc23)O[C@@H]1C (stereo partly drawn)

1: 1.0; 2: 9.0; 3: 0.0; 4: 9.0

----------
Would you kindly list Preemergence herbicidal rating ZEAMX for each of these molecules?
System: ZEAMX (Corn, Field)
assay: Preemergence herbicidal evaluation
Assay type: in vivo, Zea mays, L.
cond: Rate 0.0620 kg/ha; rated 4-5 weeks after treatment
Excerpt: Results of herbicide evaluation are expressed on a rating scale (0-9). The scale is based upon a visual observation of plant stand, vigor, malformation, size, chlorosis and overall plant appearance as compared with a control. […]
Numbers only.

Known Preemergence herbicidal rating ZEAMX results, listed for orientation:
Cn1c(C(F)(F)F)cc(=O)n(-c2ccc3snc(C4=NCCO4)c3c2)c1=O [Compound 75] = 1.0
Cc1sccc1-c1nsc2ccc(-n3c(=O)cc(C(F)(F)F)n(C)c3=O)cc12 [Compound 68] = 2.5
C[C@@H]1C[C@H](C)OC(c2nsc3ccc(-n4c(=O)cc(C(F)(F)F)n(C)c4=O)cc23)O1 (stereo partly shown) [Compound 51] = 8.0

Please look at the following molecule next.
Preemergence herbicidal rating ZEAMX for Cn1c(C(F)(F)F)cc(=O)n(-c2ccc3snc(C4OCC(CO)O4)c3c2)c1=O (stereo not shown) [Compound 73] is 6.5
